Test system: colorectal cancer cells SW480
Test: 3D model proliferation inhibitory activity test against colorectal cancer cells SW480 (CellTiter-3D-Glo)
Assay type: cell-based
Conditions: Homo sapiens, low-adhesion 96-well U-bottom plate
Property: IC50; scope: individual compounds
Express the result in nM but write the number alone.

Q: Using the record for C=CCNC(=O)c1cc(Cc2ccnc(NS(=O)(=O)NC)c2F)c(F)c(F)c1Nc1ccc(C=C)cc1F , report its IC50.
A: 2.67

Q: Same lookup for C=CCNC(=O)c1cc(Cc2ccnc(NS(=O)(=O)NC)c2F)c(F)c(F)c1Nc1ccc(I)cc1F , please.
A: 0.89

Q: Another compound: C=CCCONC(=O)c1cc(Cc2ccnc(NS(=O)(=O)NC)c2F)c(F)c(F)c1Nc1ccc(I)cc1F
A: 0.63

Q: Similarly, [2H]C([2H])([2H])NS(=O)(=O)Nc1nccc(Cc2cc(C(=O)NCC=C)c(Nc3ccc(I)cc3F)c(F)c2F)c1F ?
A: 1.05

Q: // same read-out, input: C=CCONC(=O)c1cc(Cc2ccnc(NS(=O)(=O)NC)c2F)c(F)c(F)c1Nc1ccc(I)cc1F
A: 0.17

---

Assay: In-vivo pharmacokinetic study in SD rats
Details: both sexes, rat, plasma, 0.2 mg/kg, single dose, intravenous and oral gavage, read-out: absolute bioavailability (F%)
endpoint: bioavailability

Q: # query: bioavailability of entry C=CCNC(=O)c1cc(Cc2ccnc(NS(=O)(=O)NC)c2F)c(F)c(F)c1Nc1ccc(I)cc1F
A: > 65%
